System: IGROV1 ovarian
protocol description: NCI tumour cell line growth inhibition, 48 h
measured metric: TGI

CCOC(=O)c1c(SCc2ccccc2)nc2c3ccccc3ccn12	> 100 µM
COc1ccc(OC)c2[nH]c(Sc3c([N+](=O)[O-])ncn3C)nc12	85.7 µM
COC(=O)C1=CN(CC2=CC(=O)C(C)=CC2=O)C=C(C(=O)OC)C1c1cc(OC)ccc1OC	43.1 µM
COC(=O)C1=C(C)C(=O)[C@H]2C(C(=O)OC)CCCC[C@@H]12 (some centres undefined)	> 100 µM
C=C1C(NC)CCC23CC24CCC2(C)C(C(C)=O)C(O)CC2(C)C4CCC13 (centres undefined)	> 100 µM
Oc1ccc(-c2nc(=S)[nH][nH]2)cc1	> 100 µM
O=C(/C=C/c1ccc(Br)cc1)c1ccc(NCc2nc3ccccc3[nH]2)cc1	> 76.3 µM
COc1ccc(Oc2ccc3cc4c(cc3c2O)OCO4)c2cc(C)oc12	> 100 µM
C=C1C(=O)O[C@H]2[C@H]1CC/C(COC(=O)CCCC(=O)OC/C1=C/CC[C@@]3(C)O[C@H]3[C@H]3OC(=O)C(=C)[C@@H]3CC1)=C\CC[C@@]1(C)O[C@@H]21	4.54 µM

---

Entries annotated with measured GI50
Tested on: SN12C renal
protocol description: NCI tumour cell line growth inhibition, 48 h
measured metric: GI50

COC(=O)C1=CN(CC2=CC(=O)C(C)=CC2=O)C=C(C(=O)OC)C1c1cc(OC)ccc1OC	16 µM
CC(=O)OC1Oc2ccccc2-c2oc(=O)c(-c3ccc(F)cc3)cc21 (stereo not given)	35.1 µM
Cc1cc(N(CCNc2ccnc3cc(Cl)ccc23)Cc2cccs2)nc(Cl)n1	1.58 µM
CCCN(CCC)c1ccc(CO)c(Cl)c1	39.2 µM
O=c1ccc2nc(C(F)(F)F)nn(-c3ccccc3)c-2c1	7.31 µM
C[CH2][Pb]([CH2]C)([CH2]C)[O]C(=O)COc1ccccc1	2.39 µM
NCCN.O=C([O-])C(=O)[O-].O=C([O-])C(=O)[O-].[Co+3].[K+]	> 100 µM
COc1cc(-c2csc(NC(=O)Nc3ccc(Cl)c(C(F)(F)F)c3)n2)cc(OC)c1OC	1.76 µM
CC(C)C[C@H](NC(=O)Cn1ccc(Nc2ccccc2)cc1=O)B(O)O	5.17 µM
Cc1ccc(NC2=N[C@]34CC(=O)CC[C@]3(C)[C@H]3CC[C@]5(C)C(=O)CC[C@H]5[C@@H]3C[C@@H]4S2)c(C)c1	2.17 µM

---

System: A549 NSCLC
protocol description: NCI tumour cell line growth inhibition, 48 h
measured metric: TGI (µM)

CC1OC(OC2C(O)CC(OC3C(O)CC(OC4CCC5(C)C(CCC6C5CCC5(C)C(C7=CC(=O)OC7)CCC65O)C4)OC3C)OC2C)CC(O)C1O (stereo not given)	0.0295
COC(=O)C1=CN(CC2=CC(=O)C(C)=CC2=O)C=C(C(=O)OC)C1c1cc(OC)ccc1OC	31.2
CCOC(=O)c1cn2c(n1)sc1cc(C)c(C)cc12	38.2
C[n+]1c2ccccc2c(Nc2ccc(N3CCCCC3)cc2)c2[nH]c3ccccc3c21	0.549

---

Entries annotated with measured TGI
System: BT-549 breast
protocol description: NCI tumour cell line growth inhibition, 48 h
measured metric: TGI

O=C(CCc1ccc(O)c(O)c1)OCCc1ccccc1	> 100 µM
Cc1nc2cc(Nc3nc(N4CCCCC4)nc(N4CCOCC4)n3)ccc2n1Cc1ccccc1	7.1 µM
CCC1(O)CC(OC2CC(N(C)C)C(OC3CC(O)C(OC4CCC(=O)C(C)O4)C(C)O3)C(C)O2)c2c(cc3c(c2O)C(=O)c2c(O)ccc(O)c2C3=O)C1C(=O)OC (stereo not given)	1.78 µM
CC(=O)N1C(Nc2cnc3ccccc3c2)CCN1c1ccccc1 (stereo not given)	> 10 µM
C=C1CCc2ccccc2C1=O	> 100 µM

---

Tested on: HS 578T breast
protocol description: NCI tumour cell line growth inhibition, 48 h
measured metric: GI50

C=C1C(=O)O[C@H]2[C@H]1CC/C(COC(=O)CCSSCCC(=O)OC/C1=C/CC[C@@]3(C)O[C@H]3[C@H]3OC(=O)C(=C)[C@@H]3CC1)=C\CC[C@@]1(C)O[C@@H]21	1.95 µM
COc1cc(-c2csc(NC(=O)Nc3ccc(Cl)c(C(F)(F)F)c3)n2)cc(OC)c1OC	1.67 µM
CC(=O)N1CCC(Nc2cc(C(=O)NC[C@H](O)CN3CCc4ccccc4C3)ncn2)CC1	> 100 µM
OCc1ccc(N(Cc2ccc(F)cc2)CC2CC2)cc1Cl	14.7 µM
O=c1cc(NCC(O)CN2CCOCC2)n(Cc2ccccc2)c(=O)n1Cc1ccccc1 (stereo not drawn)	37.8 µM
O=C(N/N=C/c1c(Cl)cccc1Cl)c1cccnc1Nc1cccc(C(F)(F)F)c1	3.59 µM
C=C1C(=O)O[C@H]2[C@H]1CC/C(COC(=O)/C=C\C(=O)NCc1ccc(Cn3c(=O)sn(CCCI)c3=O)cc1)=C\CC[C@@]1(C)O[C@@H]21	0.851 µM
Nn1c2c(c3ccccc3c1=O)C(=O)c1ccccc1-2	18.4 µM

---

Tested on: IGROV1 ovarian
protocol description: NCI tumour cell line growth inhibition, 48 h; in the data active = GI50 below about 0.43 µM; inactive = the rest
Outcomes: active, inactive

C=C1C(=O)O[C@H]2[C@H]1CC/C(COC(=O)/C=C\C(=O)NCc1ccc(Cn3c(=O)sn(CCCI)c3=O)cc1)=C\CC[C@@]1(C)O[C@@H]21	active
CC(=O)OC1CC2C(C)(C)C(=O)C=C[C@]2(C)C2CC[C@]3(C)C(OCC(=O)[C@H]3c3ccoc3)[C@]12C (stereo not given in full)	inactive
COC(=O)C1=CN(CC2=CC(=O)C(C)=CC2=O)C=C(C(=O)OC)C1c1cc(OC)ccc1OC	inactive
CC(O)CCc1ccc(Oc2c3ccccc3nc3occc23)cc1 (stereo not given)	inactive
Cc1cc(C2CC(O)C(CO)O2)c(Cl)cc1Cl (stereo not given)	inactive

---

Tested on: SF-295 CNS
protocol description: NCI tumour cell line growth inhibition, 48 h; in the data active = GI50 below about 0.43 µM; inactive = the rest
Outcomes: active, inactive

O=C(Nc1ccc([As]=[As]c2ccc(NC(=O)c3ccccc3)cc2)cc1)c1ccccc1 (stereo not given)	inactive
O=C(Nc1cccc(Cl)c1)Nc1nccs1	inactive
O=Cc1cn(Cc2ccc(Cl)cc2)c2ccccc12	inactive
OCc1ccc(N(Cc2ccc(F)cc2)CC2CC2)cc1Cl	inactive
Cc1cc(Oc2ccccc2)ccc1Nc1ncnc2ccc(-c3cnc(Cl)c(NS(C)(=O)=O)c3)cc12	inactive
O=S(=O)(Nc1ccc(Cl)cc1)c1ccc(-c2cnc(C3CC3)o2)cc1	active
COc1cc2c(cc1OCc1ccccc1)N=CC1C[C@@H](O)CN1C2=O (stereo not given in full)	inactive
COc1ccc2nc3ccccc3c(NCc3ccc(Cl)cc3)c2c1	inactive
CC(=O)OC1Oc2ccccc2-c2oc(=O)c(-c3ccc(F)cc3)cc21 (stereo not given)	inactive
CC1(C)CC[C@]2(C(N)=O)CC[C@]3(C)C(=CC[C@@H]4[C@@]5(C)C/C(=C/c6cccnc6)C(=O)C(C)(C)[C@@H]5CC[C@]43C)[C@@H]2C1	inactive

---

Test system: UO-31 renal
protocol description: NCI tumour cell line growth inhibition, 48 h; in the data active = GI50 below about 0.43 µM; inactive = the rest
Outcomes: class 1 for active, class 0 for inactive

COc1ccc2nc3cccc([N+](=O)[O-])c3c(NCCNCCO)c2c1	class 1
O=CN/N=C/c1ccc(Cl)c([N+](=O)[O-])c1	class 0
COc1ccc2c(c1)[n+]([O-])c(C#N)c(NC(=O)c1cccs1)[n+]2[O-]	class 0
Cc1nn(CCO)c(C)c1N=[N+]([O-])c1c(C)nn(CCO)c1C	class 0
ClCCn1cnc2c(SCc3ccccc3Cl)ncnc21	class 0
N#Cc1c(Br)n(C2OC(CO)C(O)C2O)c2ncn3ccnc3c12 (centres undefined)	class 0
C=C1C(=O)O[C@H]2[C@H]1CC/C(COC(=O)CCCC(=O)OC/C1=C/CC[C@@]3(C)O[C@H]3[C@H]3OC(=O)C(=C)[C@@H]3CC1)=C\CC[C@@]1(C)O[C@@H]21	class 0
[Cl-].[Nd+3].[O-]/N=C(\c1ccccc1)c1ccccn1.[O-]/N=C(\c1ccccc1)c1ccccn1.[O-]/N=C(\c1ccccc1)c1ccccn1	class 0
CC(C)C[C@H](NC(=O)Cn1ccc(Nc2ccccc2)cc1=O)B(O)O	class 0

---

Tested on: SK-MEL-28 melanoma
protocol description: NCI tumour cell line growth inhibition, 48 h; in the data active = GI50 below about 0.43 µM; inactive = the rest
Outcomes: active, inactive

O=C(CCCCN1CCOCC1)Nc1ccc(Cn2nnc3c2C(=O)c2nnn(Cc4ccc(NC(=O)CCCCN5CCOCC5)cc4)c2C3=O)cc1	active
COc1ccc2nc3ccccc3c(NCc3ccc(Cl)cc3)c2c1	inactive
NCCN.O=C([O-])C(=O)[O-].O=C([O-])C(=O)[O-].[Co+3].[K+]	inactive
C[C@]12CCC(=O)CC1CC[C@@H]1C2CC[C@@]2(C)C1CC[C@@H]2OC(=O)CC[Se][Se]CCC(=O)O[C@H]1CCC2[C@@H]3CCC4CC(=O)CC[C@]4(C)C3CC[C@@]21C (stereo partly drawn)	inactive
Nn1c2c(c3ccccc3c1=O)C(=O)c1ccccc1-2	inactive
CCC(=O)OC1CCC2C3CCC(=O)OC3C(C)(CCC(=O)O)CC12C (stereo not drawn)	inactive
Cc1cc(N(CCNc2ccnc3cc(Cl)ccc23)Cc2cccs2)nc(Cl)n1	inactive
CCCCCCCC(=O)SCC/C=C/[C@@H]1CC(=O)NCc2cccc(n2)CN(Cc2ccc3ccccc3c2)CC(=O)N[C@@H](C(C)C)C(=O)O1	inactive

The measured values listed here are drawn from PubChem BioAssay (NCI).
